Attribution: patent EP0550775A1

Protocol text: Chemical stability (half-life) in phosphate buffer by HPLC
Type: physicochemical
Assay setup: pH 7.4, phosphate buffer (pH7.40; 37°C)
Below is a list of entries, each paired with its recorded half-life value.
Report only the number, with the unit h understood.

Molecule | Property label | Measurement units | Reading
CCN1CCN(C(=O)N[C@@H](C(=O)N[C@@H]2C(=O)N3C(C(=O)O)=C(CN4CCN(c5cc6c(cc5F)c(=O)c(C(=O)O)cn6C5CC5)CC4)CS[C@H]23)c2ccc(O)cc2)C(=O)C1=O | half-life | h | 60

**Q:** I'd like to know its half-life. The molecule in question is O=C([O-])C1=C(CN2CCN(c3cc4c(cc3F)c(=O)c(C(=O)[O-])cn4C3CC3)CC2)CS[C@@H]2[C@H](NC(=O)C(C(=O)[O-])c3ccccc3)C(=O)N12.[Na+].[Na+].[Na+] (some centres unmarked)
**A:** 228
